// data source = the supplement of paper PMC13380429

# Test system: Vero E6
# experiment: drug sensitivity score (DSS) for viability; higher = more toxic; extreme values may be limits of the assay
# test.settings: 72 h

compound: O=C(O)c1cc2ccccc2s1
drug sensitivity score: 0
--
compound: CN1CCc2cc3c(cc2[C@H]1[C@@H]1OC(=O)c2c1ccc1c2OCO1)OCO3 [bicuculline-(+)]
drug sensitivity score: 0
--
compound: CCOC(=O)NNc1ccc(N(CC)CC(C)O)nn1 (centres undefined)
drug sensitivity score: 0
--
compound: O=C1C2CCN(CC2)C1(CO)CO
drug sensitivity score: 0
--
compound: Cc1nnsc1C(=O)Nc1ccc(-n2nc(C(F)(F)F)cc2C(F)(F)F)cc1
drug sensitivity score: 0
--
compound: CCCCCS(=O)(=O)CCCCCCCCCCn1c(-c2ccc(O)cc2)c(C)c2cc(O)ccc21
drug sensitivity score: 1
--
compound: O=C(O)CCC(=O)OC[C@@H](NC(=O)C(Cl)Cl)[C@H](O)c1ccc([N+](=O)[O-])cc1 [chloramphenicol-sodium-succinate]
drug sensitivity score: 0
--
compound: S=C(NC1CCCCC1)N1CCC(c2cnc[nH]2)CC1 [thioperamide]
drug sensitivity score: 0
--
compound: C=C(c1ccccc1OCc1cccc(Cl)c1)n1ccnc1
drug sensitivity score: 0
--
compound: CC(C)C[C@@H](C(=O)N[C@H](C(=O)OC1CCCC1)c1ccccc1)[C@H](O)C(=O)NO
drug sensitivity score: 0
--
compound: CNC(=O)c1ccccc1Nc1cc(Nc2ccc(N3CCOCC3)cc2OC)ncc1C(F)(F)F
drug sensitivity score: 7
--
compound: C/N=C(/NC#N)NCCSCc1csc(NC(=N)N)n1
drug sensitivity score: 0
--
compound: C=CC(=O)Nc1cccc(Oc2nc(Nc3ccc(N4CCN(C)CC4)cc3)ncc2Cl)c1
drug sensitivity score: 10.3
--
compound: C[C@H]1O[C@@H](n2cc(F)c(=O)[nH]c2=O)[C@H](O)[C@@H]1O
drug sensitivity score: 0
--
compound: CCCCCCCCCCC(CO)CCCCCCCC (centres undefined)
drug sensitivity score: 0
--
compound: CC(=O)/N=c1/[nH]c(C)c(-c2ccc(Cl)c(S(=O)(=O)NCCO)c2)s1
drug sensitivity score: 1.1
--
compound: CCS(=O)(=O)c1cccc(-c2cc(C(=O)NC3CCN(C)CC3)c(C)c3[nH]c4ncc(C)cc4c23)c1
drug sensitivity score: 1.1
--
compound: CCCCCCc1ccc(O)cc1O
drug sensitivity score: 0
--
compound: Nc1ccc(C(=O)O)cc1 [potassium-p-aminobenzoate]
drug sensitivity score: 0
--
compound: CCOc1ccccc1N/N=C1/C(=O)N(c2nc(-c3ccccc3)cs2)N=C1C
drug sensitivity score: 0
--
compound: CC(C)c1cc(CNc2nc(Nc3cc(C4CC4)[nH]n3)cc(N3CCN(C)CC3)n2)on1
drug sensitivity score: 7.8
--
compound: COC(=O)Nc1nc2cc(C(=O)c3ccc(F)cc3)ccc2[nH]1
drug sensitivity score: 5.5
--
compound: O=C1Nc2ccccc2/C1=C1/Nc2ccccc2C1=O
drug sensitivity score: 0
--
compound: COc1ccc([C@@H]2CC(=O)c3c(O)cc(O[C@@H]4O[C@H](CO[C@@H]5O[C@@H](C)[C@H](O)[C@@H](O)[C@H]5O)[C@@H](O)[C@H](O)[C@H]4O)cc3O2)cc1O
drug sensitivity score: 0

###

# System: Calu-3
# experiment: cell viability relative to DMSO; higher = less toxic
# test.settings: 72 h; 1 nM
Catalogue of cell viability readings, one per entry.
metric.name: cell viability (%)

compound: N=C(N)c1ccc(/N=N/Nc2ccc(C(=N)N)cc2)cc1 [diminazene-aceturate]
units: %
experimental.value: 93.7
//
compound: Cc1c(CC(C)(C)C(=O)O)n(Cc2ccc(Cl)cc2)c2ccc(F)cc12
units: %
experimental.value: 104
//
compound: CCCN(CCC)[C@@H]1CCc2c(OC)cccc2[C@@H]1C [UH-232-(+)]
units: %
experimental.value: 102
//
compound: Cc1cc(C)c2c(c1)[C@@H](N(Cc1cc(C(F)(F)F)cc(C(F)(F)F)c1)c1nnn(C)n1)CCCN2C[C@H]1CC[C@H](C(=O)O)CC1
units: %
experimental.value: 97
//
compound: CCCc1ccc(C(=O)O)cc1
units: %
experimental.value: 106
//
compound: CC(C)NCCCn1c(Sc2cc3c(cc2I)OCO3)nc2c(N)ncnc21
units: %
experimental.value: 97.7
//
compound: CC(C)N1Cc2cc(S(C)(=O)=O)ccc2N(CCN2CC=C(c3c[nH]c4cc(F)ccc34)CC2)S1(=O)=O
units: %
experimental.value: 98.6
//
compound: O=C(O)[C@H]1CCCN(CCC=C(c2ccccc2)c2ccccc2)C1 (racemic)
units: %
experimental.value: 96.8
